- ASSAY OVERVIEW: Bio-availability: blood plasma level after injection of calves
- Format: in vivo
- EXPERIMENTAL PARAMETERS: bovine, plasma, 1 mg/kg, day 84, calf 1, 1 mg/kg injection
QUANTITY MEASURED: concentration at 2016 h
Don't forget the unit after the number, please.

get_value(item= O=C(NC(=O)c1c(F)cccc1F)Nc1ccc(Cl)c(Oc2ncc(C(F)(F)F)cc2Cl)c1 [(A)] , readout=concentration at 2016 h) returns 7 ng/mL

* * *

- ASSAY OVERVIEW: Bio-availability: blood plasma level after injection of calves
- Type: in vivo
- EXPERIMENTAL PARAMETERS: bovine, plasma, 1 mg/kg, day 35, calf 4, 1 mg/kg injection
QUANTITY MEASURED: concentration at 840 h
Don't forget the unit after the number, please.

get_value(item= `Nc1ccc(F)c(C(=O)NC(=O)Nc2ccc(Cl)c(Oc3ncc(C(F)(F)F)cc3Cl)c2)c1F` , readout=concentration at 840 h) returns 4 ng/mL

* * *

- ASSAY OVERVIEW: Bio-availability: blood plasma level after injection of calves
- Type: in vivo
- EXPERIMENTAL PARAMETERS: bovine, plasma, 1 mg/kg, day 28, calf 4, 1 mg/kg injection
QUANTITY MEASURED: concentration at 672 h (ng/mL)
Express it in ng/mL; write the number only.

get_value(item= Nc1ccc(F)c(C(=O)NC(=O)Nc2ccc(Cl)c(Oc3ncc(C(F)(F)F)cc3Cl)c2)c1F [Compound 1.1] , readout=concentration at 672 h) returns 6

* * *

- ASSAY OVERVIEW: Bio-availability: blood plasma level after injection of calves
- Assay type: in vivo
- EXPERIMENTAL PARAMETERS: bovine, plasma, 1 mg/kg, day 70, calf 2, 1 mg/kg injection
QUANTITY MEASURED: concentration at 1680 h (ng/mL)
Express it in ng/mL; write the number only.

get_value(item= O=C(NC(=O)c1c(F)cccc1F)Nc1ccc(Cl)c(Oc2ncc(C(F)(F)F)cc2Cl)c1 [(A)] , readout=concentration at 1680 h) returns 5

* * *

- ASSAY OVERVIEW: Bio-availability: blood plasma level after injection of calves
- Type: in vivo
- EXPERIMENTAL PARAMETERS: bovine, plasma, 1 mg/kg, day 14, calf 3, 1 mg/kg injection
QUANTITY MEASURED: concentration at 336 h (ng/mL)
Express it in ng/mL; write the number only.

get_value(item= Nc1ccc(F)c(C(=O)NC(=O)Nc2ccc(Cl)c(Oc3ncc(C(F)(F)F)cc3Cl)c2)c1F [Compound 1.1] , readout=concentration at 336 h) returns 16

* * *

- ASSAY OVERVIEW: Bio-availability: blood plasma level after injection of calves
- Type: in vivo
- EXPERIMENTAL PARAMETERS: bovine, plasma, 1 mg/kg, day 1, calf 2, 1 mg/kg injection
QUANTITY MEASURED: concentration at 24 h
Don't forget the unit after the number, please.

get_value(item= `O=C(NC(=O)c1c(F)cccc1F)Nc1ccc(Cl)c(Oc2ncc(C(F)(F)F)cc2Cl)c1` , readout=concentration at 24 h) returns 5 ng/mL

* * *

- ASSAY OVERVIEW: Bio-availability: blood plasma level after injection of calves
- Format: in vivo
- EXPERIMENTAL PARAMETERS: bovine, plasma, 1 mg/kg, day 77, calf 2, 1 mg/kg injection
- Protocol: As a measure of bio-availability, the blood plasma level of the compounds is determined on several days after the injection of calves with, in each case, 1 mg of compound/kg body weight.
QUANTITY MEASURED: concentration at 1848 h (ng/mL)
Express it in ng/mL; write the number only.

get_value(item= `O=C(NC(=O)c1c(F)cccc1F)Nc1ccc(Cl)c(Oc2ncc(C(F)(F)F)cc2Cl)c1` , readout=concentration at 1848 h) returns 2

* * *

- ASSAY OVERVIEW: Bio-availability: blood plasma level after injection of calves
- Type: in vivo
- EXPERIMENTAL PARAMETERS: bovine, plasma, 1 mg/kg, day 42, calf 2, 1 mg/kg injection
- Description: As a measure of bio-availability, the blood plasma level of the compounds is determined on several days after the injection of calves with, in each case, 1 mg of compound/kg body weight.
QUANTITY MEASURED: concentration at 1008 h
Don't forget the unit after the number, please.

get_value(item= `O=C(NC(=O)c1c(F)cccc1F)Nc1ccc(Cl)c(Oc2ncc(C(F)(F)F)cc2Cl)c1` , readout=concentration at 1008 h) returns 6 ng/mL

* * *

- ASSAY OVERVIEW: Physico-chemical characteristics: solubilities
- Type: physicochemical
- EXPERIMENTAL PARAMETERS: hexane, organic solvent or mixture; read-out: solubility in hexane
QUANTITY MEASURED: solubility (µg/mL)
Express it in µg/mL; write the number only.

get_value(item= `O=C(NC(=O)c1c(F)cccc1F)Nc1ccc(Cl)c(Oc2ncc(C(F)(F)F)cc2Cl)c1` , readout=solubility) returns 3

* * *

- ASSAY OVERVIEW: Bio-availability: blood plasma level after injection of calves
- Assay type: in vivo
- EXPERIMENTAL PARAMETERS: bovine, plasma, 1 mg/kg, day 77, calf 1, 1 mg/kg injection
QUANTITY MEASURED: concentration at 1848 h (ng/mL)
Express it in ng/mL; write the number only.

get_value(item= `O=C(NC(=O)c1c(F)cccc1F)Nc1ccc(Cl)c(Oc2ncc(C(F)(F)F)cc2Cl)c1` , readout=concentration at 1848 h) returns 5

* * *

- ASSAY OVERVIEW: Bio-availability: blood plasma level after injection of calves
- Assay type: in vivo
- EXPERIMENTAL PARAMETERS: bovine, plasma, 1 mg/kg, day 7, calf 3, 1 mg/kg injection
QUANTITY MEASURED: concentration at 168 h (ng/mL)
Express it in ng/mL; write the number only.

get_value(item= Nc1ccc(F)c(C(=O)NC(=O)Nc2ccc(Cl)c(Oc3ncc(C(F)(F)F)cc3Cl)c2)c1F [Compound 1.1] , readout=concentration at 168 h) returns 48

* * *

Field: solubility. Provide a value for each of the compounds that follow.
- ASSAY OVERVIEW: Physico-chemical characteristics: solubilities
- Assay type: physicochemical
- EXPERIMENTAL PARAMETERS: water; read-out: solubility in water
Express it in µg/mL; write the number only.

get_value(item= `O=C(NC(=O)c1c(F)cccc1F)Nc1ccc(Cl)c(Oc2ncc(C(F)(F)F)cc2Cl)c1` , readout=solubility) returns 0.02

get_value(item= `Nc1ccc(F)c(C(=O)NC(=O)Nc2ccc(Cl)c(Oc3ncc(C(F)(F)F)cc3Cl)c2)c1F` , readout=solubility) returns 0.11

* * *

- ASSAY OVERVIEW: Bio-availability: blood plasma level after injection of calves
- Type: in vivo
- EXPERIMENTAL PARAMETERS: bovine, plasma, 1 mg/kg, day 21, calf 4, 1 mg/kg injection
QUANTITY MEASURED: concentration at 504 h (ng/mL)
Express it in ng/mL; write the number only.

get_value(item= Nc1ccc(F)c(C(=O)NC(=O)Nc2ccc(Cl)c(Oc3ncc(C(F)(F)F)cc3Cl)c2)c1F [Compound 1.1] , readout=concentration at 504 h) returns 12

* * *

- ASSAY OVERVIEW: Bio-availability: blood plasma level after injection of calves
- Format: in vivo
- EXPERIMENTAL PARAMETERS: bovine, plasma, 1 mg/kg, day 70, calf 1, 1 mg/kg injection
QUANTITY MEASURED: concentration at 1680 h (ng/mL)
Express it in ng/mL; write the number only.

get_value(item= `O=C(NC(=O)c1c(F)cccc1F)Nc1ccc(Cl)c(Oc2ncc(C(F)(F)F)cc2Cl)c1` , readout=concentration at 1680 h) returns 7

* * *

- ASSAY OVERVIEW: Bio-availability: blood plasma level after injection of calves
- Format: in vivo
- EXPERIMENTAL PARAMETERS: bovine, plasma, 1 mg/kg, day 28, calf 2, 1 mg/kg injection
QUANTITY MEASURED: concentration at 672 h (ng/mL)
Express it in ng/mL; write the number only.

get_value(item= `O=C(NC(=O)c1c(F)cccc1F)Nc1ccc(Cl)c(Oc2ncc(C(F)(F)F)cc2Cl)c1` , readout=concentration at 672 h) returns 5

* * *

- ASSAY OVERVIEW: Bio-availability: blood plasma level after injection of calves
- Assay type: in vivo
- EXPERIMENTAL PARAMETERS: bovine, plasma, 1 mg/kg, day 35, calf 1, 1 mg/kg injection
QUANTITY MEASURED: concentration at 840 h (ng/mL)
Express it in ng/mL; write the number only.

get_value(item= O=C(NC(=O)c1c(F)cccc1F)Nc1ccc(Cl)c(Oc2ncc(C(F)(F)F)cc2Cl)c1 [(A)] , readout=concentration at 840 h) returns 6
